method notes: qHTS Assay for Rab9 Promoter Activators; also: nearly all actives have a fitted effect of over 60% in size
experimental setup: Huh7 Rab9 promoter-luciferase reporter, luminescence, 24 h; series mostly up to 9.22 µM
Among all 320,000 compounds or so, about 9,100 (2.8%) were called active. Roughly 3% stayed inconclusive and do not appear here. Calls follow the shape of the dose curve; as a rule, active = well fitted activation curve with a large enough effect; inconclusive = small, poorly fitted or top-dose-only effect; inactive = no such curve, though single readings can be large or run the other way. This excerpt belongs to a sample that is enriched for actives.
Valid outcomes are listed here; reply with one: active, inactive

Observe how each entry below is paired with its result.
smiles text	assigned label
CN(C)C(=O)Oc1ccc(OCc2cccc[n+]2C)cc1	inactive
CC(C)(C)c1ccc(OC(=O)N2CCCCC2)cc1	active
O=C(Nc1cccc(OC(=O)N2CCCCC2)c1)N1CCOCC1	inactive
C[C@@H]1C[C@@H]2O[C@H]2/C=C\C=C\C(=O)Cc2c(Cl)c(O)cc(O)c2C(=O)O1	inactive
CN1CCN(C(=O)COc2ccc(C(C)(C)C)cc2Br)CC1	inactive

Which result was noted for this molecule in the test: c1ccc2c(c1)[I+]c1ccccc1-2
inactive

Recorded call for CNCC[C@H](Oc1ccc(C(F)(F)F)cc1)c1ccccc1 ?
inactive

Query: recorded result category for CC(=O)c1c(O)c(C)c(O)c(Cc2c(O)c3c(c(C(=O)/C=C/c4ccccc4)c2O)OC(C)(C)C=C3)c1O in this test
inactive
